Origin of values: patent US20110301335A1

- SYSTEM_TESTED: T1, human TNFR1 on MRC-5 cells (human, UniProt P19438 30-455)
- T1 sequence (looked up): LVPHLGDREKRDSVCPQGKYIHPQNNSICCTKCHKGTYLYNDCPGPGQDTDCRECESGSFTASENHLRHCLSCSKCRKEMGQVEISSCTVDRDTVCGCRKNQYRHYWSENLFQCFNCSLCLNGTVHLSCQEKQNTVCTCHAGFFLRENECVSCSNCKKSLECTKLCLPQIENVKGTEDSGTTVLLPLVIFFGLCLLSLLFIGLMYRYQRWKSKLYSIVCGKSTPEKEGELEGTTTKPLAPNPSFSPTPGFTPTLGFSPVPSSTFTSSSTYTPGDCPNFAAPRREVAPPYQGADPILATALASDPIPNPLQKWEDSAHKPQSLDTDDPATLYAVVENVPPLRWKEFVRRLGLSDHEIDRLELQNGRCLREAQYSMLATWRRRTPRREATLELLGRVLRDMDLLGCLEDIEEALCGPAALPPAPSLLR
- PROTOCOL_SUMMARY: cell-based or functional assay
Below: a set of entries, each annotated with reported MRC5 (ND50 in nM).
Provide the reading as a plain figure in nM.

DMS0116 (bispecific antibody) EVQLLESGGGLVQPGGSLRLSCAASGFTFVKYSMGWVRQAPGKGLEWVSQISNTADRTYYAHSVKGRFTISRDNSKNTLYLQMNSLRAEDTAVYYCAIYTGRWVPFEYWGQGTLVTVSSASTSGPSDIQMTQSPSSLSASVGDRVTITCRASRPIGTMLSWYQQKPGKAPKLLILFGSRLQSGVPSRFSGSGSGTDFTLTISSLQPEDFATYYCAQAGTHPTTFGQGTKVEIKR
1.7
DMS0115 (bispecific antibody) EVQLLESGGGLVQPGGSLRLSCAASGFTFVKYSMGWVRQAPGKGLEWVSQISNTADRTYYAHSVKGRFTISRDNSKNTLYLQMNSLRAEDTAVYYCAIYTGRWVPFEYWGQGTLVTVSSASTSGPSDIQMTQSPSSLSASVGDRVTITCRASRPIGTTLSWYQQKPGKAPKLLILWNSRLQSGVPSRFSGSGSGTDFTLTISSLQPEDFATYYCAQAGTHPTTFGQGTKVEIKR
1.7
DMS0118 (bispecific antibody) EVQLLESGGGLVQPGGSLRLSCAASGFTFVKYSMGWVRQAPGKGLEWVSQISNTADRTYYAHSVKGRFTISRDNSKNTLYLQMNSLRAEDTAVYYCAIYTGRWVPFEYWGQGTLVTVSSASTSGPSDIQMTQSPSSLSASVGDRVTITCRASQWIGSQLSWYQQKPGKAPKLLIMWRSSLQSGVPSRFSGSGSGTDFTLTISSLQPEDFATYYCAQGLMKPMTFGQGTKVEIKR
1.4
DMS0112 (bispecific antibody) EVQLLESGGGLVQPGGSLRLSCAASGFTFVKYSMGWVRQAPGKGLEWVSQISNTADRTYYAHSVKGRFTISRDNSKNTLYLQMNSLRAEDTAVYYCAIYTGRWVPFEYWGQGTLVTVSSASTDIQMTQSPSSLSASVGDRVTITCRASRPIGTMLSWYQQKPGKAPKLLILFGSRLQSGVPSRFSGSGSGTDFTLTISSLQPEDFATYYCAQAGTHPTTFGQGTKVEIKR
1.3
DMS0121 (bispecific antibody) EVQLLESGGGLVQPGGSLRLSCAASGFTFVKYSMGWVRQAPGKGLEWVSQISNTADRTYYAHSVKGRFTISRDNSKNTLYLQMNSLRAEDTAVYYCAIYTGRWVPFEYWGQGTLVTVSSASGGGGSGGGGSGGGGSDIQMTQSPSSLSASVGDRVTITCRASRPIGTTLSWYQQKPGKAPKLLILWNSRLQSGVPSRFSGSGSGTDFTLTISSLQPEDFATYYCAQAGTHPTTFGQGTKVEIKR
1.8

### Prompt Let me know recorded MRC5 (ND50 in nM) for DMS0124 (bispecific antibody) EVQLLESGGGLVQPGGSLRLSCAASGFTFVKYSMGWVRQAPGKGLEWVSQISNTADRTYYAHSVKGRFTISRDNSKNTLYLQMNSLRAEDTAVYYCAIYTGRWVPFEYWGQGTLVTVSSASGGGGSGGGGSGGGGSDIQMTQSPSSLSASVGDRVTITCRASQWIGSQLSWYQQKPGKAPKLLIMWRSSLQSGVPSRFSGSGSGTDFTLTISSLQPEDFATYYCAQGLMKPMTFGQGTKVEIKR , thanks.
### Response 1.9
